This collection of values is drawn from paper PMC4689772.

experiment: Unidirectional (A→B) permeability across Caco-2 cell monolayers in presence and absence of excipients; settings: human, Caco-2, Apparent permeability coefficient (Papp), Control a (no excipient), mean ± SEM, n = 4
readout kind: Papp A→B (×10⁻⁶ cm/s)
Report only the number, with the unit ×10⁻⁶ cm/s understood.

Req: Return Papp A→B (reported value) for this molecule: CC(C)(C)NCC(O)COc1cccc2c1CC(O)C(O)C2 (stereo not shown) [Nadolol, nadolol]
Resp: 0.21

###

test: Unidirectional (A→B) permeability across Caco-2 cell monolayers in presence and absence of excipients; conditions: human, Caco-2, Apparent permeability coefficient (Papp), Control b (no excipient), mean ± SEM, n = 4
readout kind: Papp A→B
Answers without a unit are incomplete; give the number and then its unit.

Req: Check the records and state Papp A→B for CC(C)(C)NCC(O)COc1cccc2c1CC(O)C(O)C2 (stereo not shown)
Resp: 0.21 ×10⁻⁶ cm/s

###

test: Unidirectional (A→B) permeability across Caco-2 cell monolayers in presence and absence of excipients; settings: human, Caco-2, Apparent permeability coefficient (Papp), Povidone 0.06 mg/ml (control set a), mean ± SEM, n = 4
readout kind: Papp A→B (×10⁻⁶ cm/s)
Express the result in ×10⁻⁶ cm/s but write the number alone.

Req: Give Papp A→B for CC(C)(C)NCC(O)COc1cccc2c1CC(O)C(O)C2 (stereo not shown)
Resp: 0.09

###

experiment: Bidirectional permeability across Caco-2 cell monolayers (no excipients); details: human, Caco-2
readout kind: Papp A→B (×10⁻⁶ cm/s)
The reply should be a number in ×10⁻⁶ cm/s, with the unit left off.

Req: Specify Papp A→B for CC(C)(C)NCC(O)COc1cccc2c1CC(O)C(O)C2 (stereo not shown) and stop.
Resp: 0.29
